Origin of values: ChEMBL document CHEMBL4342415

Assay: Half life in CD1 mouse at 90 mg/kg, ip measured during 15 mins to 24 hrs by LC-MS/MS analysis
Format: ADME, organism-based
Conditions: in vivo
Each record here notes measured half-life.
Reply numerically in min, unit not repeated.

Let me know recorded half-life for "CN1Cc2cc(-c3ccc(-c4cncc(NS(=O)(=O)c5ccc(F)cc5F)c4)s3)cnc2C1=O" , thanks.
408

Please look at the following compound next.
Consider the compound "COc1ncc(-c2ccc(-c3cnc4c(c3)CN(C)C4=O)s2)cc1NS(=O)(=O)c1ccc(F)cc1F" . State its measured half-life.
1130

* * *

Assay: Cmax in CD1 mouse at 90 mg/kg, ip measured during 15 mins to 24 hrs by LC-MS/MS analysis
Assay type: ADME, organism-based
Set-up: dose 90 mg/kg, route intraperitoneal
Settings: in vivo
metric-name: Cmax (µM)
Numbers only here, please. The scale is µM.

Kindly indicate its recorded Cmax. Item: "CN1Cc2cc(-c3ccc(-c4cncc(NS(=O)(=O)c5ccc(F)cc5F)c4)s3)cnc2C1=O"
860

State its Cmax: "COc1ncc(-c2ccc(-c3cnc4c(c3)CN(C)C4=O)s2)cc1NS(=O)(=O)c1ccc(F)cc1F"
1310
